All figures here come from patent US12398154B2.

# Target Desc: KRas G12V (Homo sapiens, UniProt P01116, G12V);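 note: KRas binding measured by TR-FRET displacement at room temperature, IC50 fitted from percent of control values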
# Sequence (P01116 1-169 isoform P01116-2 G12V): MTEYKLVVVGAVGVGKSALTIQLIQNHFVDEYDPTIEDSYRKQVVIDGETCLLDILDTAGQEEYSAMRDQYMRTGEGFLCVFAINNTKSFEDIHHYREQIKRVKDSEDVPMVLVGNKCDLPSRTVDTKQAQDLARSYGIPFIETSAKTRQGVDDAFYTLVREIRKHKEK
# Test Details: biochemical
I'd appreciate it if you could supply IC50 values for the items below.
Give a bare numeral; the unit nM is implied.

// query Any idea what IC50 was measured for CCc1cccc2cc3[nH]ncc3c(-c3ncc4c(N5CCC[C@@](C)(O)C5)nc(OC[C@@]56CCCN5C[C@H](F)C6)nc4c3F)c12 ?
// result 8

// query Also, Cc1cc2n(n1)CCCN(c1nc(OCC34CCCN3CCC4)nc3c(F)c(-c4cccc5cccc(F)c45)ncc13)C2 please.
// result 10800

// query Also, CCc1c(F)ccc2cc(O)cc(-c3ncc4c(N5CCCC6(CCC(O)C6)C5)nc(OC[C@@]56CCCN5C[C@H](F)C6)nc4c3F)c12 (stereo partly shown) please.
// result 8

// query Also, Fc1c(-c2cccc3cccc(F)c23)ncc2c(Nc3ccc4cn[nH]c4c3)nc(OCC34CCCN3CCC4)nc12 please.
// result 2840
